# TEST_SYSTEM: hERG (Homo sapiens, UniProt Q12809)
# Sequence (Q12809 whole entry): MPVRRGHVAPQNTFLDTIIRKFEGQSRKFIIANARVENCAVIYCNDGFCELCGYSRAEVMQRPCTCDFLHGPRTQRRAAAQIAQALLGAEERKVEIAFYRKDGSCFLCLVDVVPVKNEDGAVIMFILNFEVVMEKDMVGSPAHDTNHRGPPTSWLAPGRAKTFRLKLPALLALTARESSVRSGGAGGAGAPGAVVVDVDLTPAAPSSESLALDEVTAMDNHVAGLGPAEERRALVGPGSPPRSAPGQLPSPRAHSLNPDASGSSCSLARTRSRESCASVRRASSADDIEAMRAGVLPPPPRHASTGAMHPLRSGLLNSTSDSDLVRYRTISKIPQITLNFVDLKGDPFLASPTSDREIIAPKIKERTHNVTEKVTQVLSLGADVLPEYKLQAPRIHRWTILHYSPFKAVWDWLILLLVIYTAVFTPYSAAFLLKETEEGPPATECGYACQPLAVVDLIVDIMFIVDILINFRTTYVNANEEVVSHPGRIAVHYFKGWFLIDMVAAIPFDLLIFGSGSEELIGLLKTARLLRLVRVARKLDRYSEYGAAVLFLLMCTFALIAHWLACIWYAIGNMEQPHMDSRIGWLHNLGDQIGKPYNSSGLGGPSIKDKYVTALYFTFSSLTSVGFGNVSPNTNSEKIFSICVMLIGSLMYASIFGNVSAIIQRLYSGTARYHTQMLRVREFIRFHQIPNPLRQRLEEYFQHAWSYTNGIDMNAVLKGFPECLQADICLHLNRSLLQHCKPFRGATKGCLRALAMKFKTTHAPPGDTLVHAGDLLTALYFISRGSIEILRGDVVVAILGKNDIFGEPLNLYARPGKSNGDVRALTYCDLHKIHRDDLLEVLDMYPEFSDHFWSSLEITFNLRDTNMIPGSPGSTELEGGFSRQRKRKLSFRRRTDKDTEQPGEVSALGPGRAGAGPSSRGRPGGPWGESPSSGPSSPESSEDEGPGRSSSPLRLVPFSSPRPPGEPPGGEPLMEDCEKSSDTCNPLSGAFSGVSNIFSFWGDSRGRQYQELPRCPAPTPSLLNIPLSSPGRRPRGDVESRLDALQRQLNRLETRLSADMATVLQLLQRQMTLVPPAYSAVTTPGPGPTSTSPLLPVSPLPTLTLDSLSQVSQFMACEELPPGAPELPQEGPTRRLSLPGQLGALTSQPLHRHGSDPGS
# ASSAY_METHOD_TEXT: hERG ion channel profiling, Qube384 automated patch clamp (standard and extended protocol)
# Format: cell-based
# CONDITION_SET: standard protocol, read-out: Patch IC50
QUANTITY_KIND: IC50 (µM)
Express it in µM; write the number only.

Query block: Please look at this compound and report its IC50: CCOc1cc(C)nc(N(CCOC)S(=O)(=O)c2ccc(NCc3c(F)cncc3F)nc2OC)n1
Result block: 52.9

###

# TEST_SYSTEM: Human PDE4D3 (Homo sapiens, UniProt Q08499)
# Sequence (Q08499 1-673 isoform Q08499-2): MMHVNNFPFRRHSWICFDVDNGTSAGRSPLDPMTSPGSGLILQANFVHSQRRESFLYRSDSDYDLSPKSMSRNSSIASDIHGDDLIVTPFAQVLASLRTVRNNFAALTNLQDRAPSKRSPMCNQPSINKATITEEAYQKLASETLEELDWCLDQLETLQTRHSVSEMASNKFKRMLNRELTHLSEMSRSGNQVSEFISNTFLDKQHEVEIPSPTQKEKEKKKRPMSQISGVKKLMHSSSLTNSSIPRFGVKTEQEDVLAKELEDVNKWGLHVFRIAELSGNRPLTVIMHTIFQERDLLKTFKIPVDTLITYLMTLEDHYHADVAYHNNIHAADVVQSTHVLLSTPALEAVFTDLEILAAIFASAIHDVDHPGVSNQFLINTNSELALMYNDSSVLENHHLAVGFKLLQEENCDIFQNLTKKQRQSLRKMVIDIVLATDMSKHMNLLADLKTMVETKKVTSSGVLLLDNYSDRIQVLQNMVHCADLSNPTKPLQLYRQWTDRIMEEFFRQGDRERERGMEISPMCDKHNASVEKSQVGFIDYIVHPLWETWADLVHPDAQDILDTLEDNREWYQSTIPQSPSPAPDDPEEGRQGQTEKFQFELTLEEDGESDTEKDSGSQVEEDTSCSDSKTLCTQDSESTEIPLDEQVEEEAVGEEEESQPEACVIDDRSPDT
QUANTITY_KIND: IC50

Query block: Please look at this molecule and report its IC50: CCOc1cc(C)nc(N(CCOC)S(=O)(=O)c2ccc(NCc3c(F)cncc3F)nc2OC)n1
Result block: > 35 µM

Numbers sourced from paper PMC10517971.
